Hey, just so you know, these numbers are from patent US6743618B2.

# target-under-test: P. furiosus protease (Pyrococcus furiosus, UniProt Q8U3Y3)
# Sequence (Q8U3Y3 entry or part of it): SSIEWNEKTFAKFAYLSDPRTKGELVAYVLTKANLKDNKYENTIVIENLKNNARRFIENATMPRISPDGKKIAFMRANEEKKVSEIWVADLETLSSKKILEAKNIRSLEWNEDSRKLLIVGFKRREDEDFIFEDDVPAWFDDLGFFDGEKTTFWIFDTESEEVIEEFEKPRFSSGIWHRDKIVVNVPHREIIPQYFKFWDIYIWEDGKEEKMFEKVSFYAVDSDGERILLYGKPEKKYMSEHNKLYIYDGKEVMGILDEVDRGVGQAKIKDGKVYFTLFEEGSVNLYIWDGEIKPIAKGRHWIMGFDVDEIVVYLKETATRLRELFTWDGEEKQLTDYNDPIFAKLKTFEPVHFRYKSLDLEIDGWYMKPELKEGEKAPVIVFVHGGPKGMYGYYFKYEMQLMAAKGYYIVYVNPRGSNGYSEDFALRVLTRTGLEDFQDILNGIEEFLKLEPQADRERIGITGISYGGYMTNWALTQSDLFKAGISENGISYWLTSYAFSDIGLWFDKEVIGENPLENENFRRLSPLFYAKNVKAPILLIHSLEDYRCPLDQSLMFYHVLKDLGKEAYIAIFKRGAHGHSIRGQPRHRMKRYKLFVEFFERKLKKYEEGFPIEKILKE
# protocol-details: Hydrolysis kinetics of synthetic peptide and ester substrates (progress curve / initial velocity analysis)
# Format: biochemical
# experimental-parameters: 25.0 °C; 0.025 M Na phosphate, pH 7.0; total progress curve analyses; read-out: Ki (product inhibition constant)
# Procedure: The hydrolysis kinetics of various synthetic peptide and ester protease substrates were studied. Two different methods have been used to analyze the kinetic properties of the enzyme. […] Progess curves were analyzed in two ways: Instantaneous point by point derivatives were calculated from the absorbance νs time data by fitting 10 points spaced 1 second apart by least squares to a second degree polynomial. […] All of the above are mean values from at least 4 separate experiments. […] N. D. means not determined.
Measured Ki by item
Please respond with the number in µM and leave the unit unwritten.

Prompt: What value of Ki has been recorded for this entry: CC(NC(=O)C(Cc1ccccc1)NC(=O)OCc1ccccc1)C(=O)O (stereo not shown) [ZPA, carbobenzoxy-phe-ala]
Completion: 134

Prompt: Name the recorded Ki for N=C(N)NCCC[C@H](NC(=O)c1ccccc1)C(=O)Nc1ccc([N+](=O)[O-])cc1 [BAPNA, N-benzoyl-L-arginine-p-nitroanilide] .
Completion: 70.8

Prompt: Look up Ki for this compound: CCOC(=O)[C@H](Cc1ccc(O)cc1)NC(=O)c1ccccc1 [BTEE, benzoyl-tyrosine ethyl ester]
Completion: 5600

Prompt: Param item = N=C(N)NCCC[C@H](NC(=O)c1ccccc1)C(=O)O [benzoyl-L-arginine] ; retrieve measured Ki.
Completion: 70.8

---

# System: Pyrococcus furiosus serine protease (carboxypeptidase/endopeptidase), native, about 81 kDa, N-terminus SEQ ID NO: 1
# protocol-details: Kinetic studies and substrate specificity (hydrolysis of synthetic peptide and ester substrates; progress curves, Hanes plot)
# Format: biochemical
# experimental-parameters: 25.0° C., 0.025 M Na phosphate, pH 7.0; mean of at least 4 experiments (PPANA: initial velocities, Hanes equation)
Non-standard residues stand in square brackets, D forms with d. Residues, ends and D or L forms follow the SMILES beside them. *: point of attachment. pNA = O=[N+]([O-])c1ccc(N*)cc1
readout-type: Km (µM)
Write the number in µM without appending the unit.

Take a look at these entries with their results.
O=C(/C=C/c1ccco1)N[C@@H](Cc1ccccc1)C(=O)N[C@@H](Cc1ccccc1)C(=O)O [FAPP, furyl-acryloyl-phe-phe]	375
O=C(O)CNC(=O)CNC(=O)[C@H](Cc1ccccc1)NC(=O)/C=C/c1ccco1 [FAPGG, furyl-acryloyl-phe-gly-gly]	415
N=C(N)NCCC[C@H](NC(=O)[C@H](Cc1ccccc1)NC(=O)[C@H]1CCCN1)C(=O)Nc1ccc([N+](=O)[O-])cc1 [PPANA, D-pro-phe-arg-pNA] (H-[dP]-Phe-Arg-pNA)	477

Switching to the query record.
Prompt: Quick one: Km for C[C@H](NC(=O)/C=C/c1ccco1)C(=O)N[C@@H](Cc1ccccc1)C(N)=O [FAAPA, furyl-acryloyl-ala-phe-amide] ?
Completion: 38.6

---

# target-under-test: P. furiosus protease (Pyrococcus furiosus, UniProt Q8U3Y3)
# protocol-details: Product inhibition: initial rate measurements of BAPNA with varying product concentrations
# Type: biochemical
# experimental-parameters: initial rate measurements of BAPNA with varying product concentration; read-out: Ki (inhibition constant of added product)
readout-type: pKi
// pKi here means minus log10 of the molar concentration (mol/L)

Prompt: So what pKi did N=C(N)NCCC[C@H](NC(=O)c1ccccc1)C(=O)O get with P. furiosus protease (Pyrococcus furiosus, UniProt Q8U3Y3)?
Completion: 4.19
